TGI values for the compounds below.
test system: HOP-92 NSCLC; assay: NCI tumour cell line growth inhibition, 48 h
value kind: TGI

| compound | assayed target | value kind | data value |
| --- | --- | --- | --- |
| C=C1C[C@H](O)[C@H]2C(C[Se]c3ccccc3)C(=O)O[C@@H]2[C@H]2[C@H](C)C(O)C[C@@H]12 (stereo not given in full) | HOP-92 NSCLC | TGI | > 100 µM |
| CCN1CC2(COC)C(O)CC(OC)C34C5CC6(O)C(OC)C=C(C5C6OC(=O)c5ccc(OC)c(OC)c5)C(C(OC)C23)C14 (stereo not given) | HOP-92 NSCLC | TGI | > 7.5 µM |
| COc1ccc(COC(=O)NNC(=O)C2CSC(c3ccccc3)N2C(C)=O)cc1 (stereo not given) | HOP-92 NSCLC | TGI | > 100 µM |
| O=S(=O)(N/N=C/c1c(Cl)cccc1Cl)c1ccccc1 | HOP-92 NSCLC | TGI | > 100 µM |
| N#CC1Sc2ccccc2-n2cccc21 (stereo not given) | HOP-92 NSCLC | TGI | > 100 µM |

----------
TGI values for the molecules below.
test system: OVCAR-5 ovarian; experiment: NCI tumour cell line growth inhibition, 48 h

| molecule | assayed target | unit symbol | readout qualifier | TGI |
| --- | --- | --- | --- | --- |
| N#Cc1cc(-c2nc3cc(F)ccc3s2)ccc1N | OVCAR-5 ovarian | µM | = | 2.9 |
| c1ccc2c(c1)Sc1ccccc1N2CC1CN2CCC1CC2 (stereo not drawn) | OVCAR-5 ovarian | µM | = | 24.5 |
| C=C1CC(c2ccc(O)c(OC)c2)Oc2c(OC)cccc21 (stereo not drawn) | OVCAR-5 ovarian | µM | > | 100 |
| CCCCCCCCCC1CC(=O)Oc2cccc(O)c21 (stereo not drawn) | OVCAR-5 ovarian | µM | > | 85.4 |
| CCCCCCC(C)c1ccc2c(c1)C(=O)c1nc3ccncc3c(=O)n1-2 (stereo not drawn) | OVCAR-5 ovarian | µM | = | 21.7 |
| C[PH+](C)C.C[PH+](C)C.[Au] | OVCAR-5 ovarian | µM | = | 24.9 |
| COc1ccc(C(=O)C2C(C#N)C(C#N)C3C=Cc4ccccc4N32)cc1 (stereo not drawn) | OVCAR-5 ovarian | µM | > | 100 |
| COC(=O)c1c(C(=O)OC)c2ccc(-c3ccc(Cl)cc3)nn2c1C(=O)c1ccc([N+](=O)[O-])cc1 | OVCAR-5 ovarian | µM | > | 100 |

----------
system: HCC-2998 colon; assay: NCI tumour cell line growth inhibition, 48 h
TGI values for the compounds below.

| compound | TGI |
| --- | --- |
| Cc1c(CN)c(C)c(CN)c(C)c1CN | > 100 µM |
| COC(=O)CCCc1ccc2c(c1)CC1(Cc3ccccc3C1)C2 | > 100 µM |
| O=S1[C@H](c2ccccc2)c2c(-c3ccccc3)sc(-c3ccccc3)c2[C@@H]1c1ccccc1 (stereo partly specified) | > 100 µM |
| Clc1ccc(Cl)c(N=Nc2cc3c4c(c2)CCCN4CCC3)c1 | > 10 µM |
| c1ccc(C[n+]2ccc3c(c2)CCCC3)cc1 | > 100 µM |
| Oc1cccc2cc(Cl)cnc12 | > 88.4 µM |

----------
test system: SW-620 colon; test: NCI tumour cell line growth inhibition, 48 h
value kind: TGI

| compound | value kind | data value |
| --- | --- | --- |
| COC(=O)c1c(C(=O)OC)c2ccc(-c3ccc(Cl)cc3)nn2c1C(=O)c1ccc([N+](=O)[O-])cc1 | TGI | > 100 µM |
| C[PH+](C)C.C[PH+](C)C.[Au] | TGI | 9.22 µM |
| Cn1ccnc1Cn1cc(-c2cccc(-c3cn[nH]c3)c2)cn1 | TGI | > 100 µM |
| Cc1nc2c(n1-c1ccc(Br)cc1)C(=O)c1ccccc1C2=O | TGI | > 100 µM |
| O=C1C=Cc2c(-c3ccccc3)oc3cccc1c23 | TGI | > 100 µM |
| CC1(C)CC2(S(=O)(=O)c3ccccc3)ON1CC2S(=O)(=O)c1ccccc1 (stereo not drawn) | TGI | > 100 µM |
| C=C1C[C@H](O)[C@H]2C(C[Se]c3ccccc3)C(=O)O[C@@H]2[C@H]2[C@H](C)C(O)C[C@@H]12 (stereo partly drawn) | TGI | 94.8 µM |
| C=CCN1C(=O)C(=O)N(CC=C)C(=O)C1=O | TGI | > 100 µM |

----------
test system: MDA-MB-435; test: NCI tumour cell line growth inhibition, 48 h

| cpd smiles | assayed target | TGI |
| --- | --- | --- |
| CO[C@@H]1[C@H](O)CC[C@]2(CO2)[C@H]1[C@@]1(C)O[C@@H]1CC=C(C)C | MDA-MB-435 | > 200 µM |
| COC(=O)c1c(C(=O)OC)c2ccc(-c3ccc(Cl)cc3)nn2c1C(=O)c1ccc([N+](=O)[O-])cc1 | MDA-MB-435 | > 100 µM |
| COc1ccc(-c2nc3cc(F)ccc3s2)cc1O | MDA-MB-435 | > 100 µM |
| CC(C)(C)c1cc(COc2cc(COc3ccc(-c4c5c(nc6c4CCc4ccc(-c7c8ccccc8nc8ccccc78)cc4-6)-c4cc(-c6c7ccccc7nc7ccccc67)ccc4CC5)cc3)cc(OCc3cc(C(C)(C)C)cc(C(C)(C)C)c3)c2)cc(C(C)(C)C)c1 | MDA-MB-435 | > 100 µM |

----------
tested on: SK-MEL-2 melanoma; experiment: NCI tumour cell line growth inhibition, 48 h
TGI values for the compounds below.

| compound | assayed target | TGI |
| --- | --- | --- |
| COc1c(C)c(OC)c2c(c1O)[C@@H]1[C@@H]3Cc4c(OC)c(C)c(OC)c(O)c4[C@H](CNC(=O)c4ccc5ccccc5n4)N3[C@@H](C#N)[C@H](C2)N1C | SK-MEL-2 melanoma | 0.000832 µM |
| COC(=O)c1ccccc1C1CN=NC12Cc1c(C)cccc1C2=O (stereo not drawn) | SK-MEL-2 melanoma | > 100 µM |
| C=CCCC(CCC=C)(C(=O)O)C(=O)O | SK-MEL-2 melanoma | > 100 µM |

----------
system: COLO 205 colon; assay: NCI tumour cell line growth inhibition, 48 h; in the data active means GI50 below about 0.43 µM; inactive means the rest
Labels: label 1 (active), label 0 (inactive)

| molecule | group label |
| --- | --- |
| Cc1c(-c2ccc(O)c(O)c2)oc(=O)c2c(O)cc(O)cc12 | label 0 |
| O=c1c2c3c(sc2n2c(CCl)nnc2n1Cc1ccccc1)CCCC3 | label 0 |
| CO/N=C(\COc1ccc2c(=O)cc(-c3ccccc3)oc2c1)c1ccc(F)cc1 | label 0 |
| Nc1c(C(=O)Nc2ccccc2)sc2nc3c(cc12)C(O)CCC3 (configuration not stated) | label 1 |
| O=c1cc(N2CCOCC2)oc2c(-c3ccc4c(c3)OCCO4)csc12 | label 1 |
| COc1ccc(C(=O)NCCNc2nccc(-c3c(-c4ccc(F)cc4)nc4sccn34)n2)cc1 | label 0 |
| CCCCCCCCCCCCCCNc1nc(C(=O)OCC)ncc1-c1ccc(C(F)(F)F)cc1 | label 0 |

----------
TGI values for the compounds below.
system: CAKI-1 renal; assay: NCI tumour cell line growth inhibition, 48 h

| compound | TGI |
| --- | --- |
| CCOC(=O)C1(C(C)=O)OC(=O)c2cnccc21 (stereo not drawn) | > 100 µM |
| C=CCN1C(=O)C(=O)N(CC=C)C(=O)C1=O | > 100 µM |
| O=C(/C=C/c1ccc2c(c1)OCO2)NCc1ccco1 | > 100 µM |

----------
test system: HCT-15 colon; test: NCI tumour cell line growth inhibition, 48 h
GI50 values for the compounds below.

| compound | GI50 |
| --- | --- |
| COc1cc(C(=O)/C=C/c2cc(-c3cc(OC)c(OC)c(OC)c3)n[nH]2)cc(OC)c1OC | 1.5 µM |
| O=C(CCl)Nc1ccc2c(Nc3cc(O)ccc3Cl)ncnc2c1 | 0.773 µM |
| C[C@@H]1CCC2[C@@H](C)[C@@H](OC3CCC(O)CC3)OC3O[C@@]4(C)CCC1[C@]32OO4 (stereo partly drawn) | 3.61 µM |

----------
tested on: HCT-15 colon; assay: NCI tumour cell line growth inhibition, 48 h
TGI values for the compounds below.

| cpd smiles | TGI |
| --- | --- |
| COc1ccc(O)cc1C=O | > 100 µM |
| C[n+]1cn(-c2ccc([N+](=O)[O-])cn2)c2ccccc21 | > 100 µM |
| C[PH+](C)C.C[PH+](C)C.[Au] | 6.21 µM |

----------
TGI values for the molecules below.
test system: MDA-N; assay: NCI tumour cell line growth inhibition, 48 h

| molecule | unit symbol | readout qualifier | TGI |
| --- | --- | --- | --- |
| Cc1ccc(S(=O)(=O)N2CCCN(S(=O)(=O)c3ccc(C)cc3)CC2)cc1 | µM | > | 100 |
| CCOC(=O)CC1c2ccc(O)cc2OC(=O)C1c1ccc(N)cc1 (stereo unspecified) | µM | > | 100 |
| N#Cc1c(C#N)c(SSc2c(C#N)c(C#N)c(N)n2-c2ccc(F)cc2)n(-c2ccc(F)cc2)c1N | µM | = | 10.8 |
| O=C(c1c(Cl)cc(Cl)cc1Cl)N(Cc1cccnc1)C(=S)N(Cc1cccnc1)C(=O)c1c(Cl)cc(Cl)cc1Cl | µM | = | 5.2 |
| C[C@]12CC[C@H](O)C[C@@H]1CC[C@@H]1[C@@H]2CC[C@]2(C)[C@@H](c3cc(C(F)(F)F)n[nH]3)CC[C@@H]12 | µM | = | 25.4 |
| CCN1CC2(COC)C(O)CC(OC)C34C5CC6(O)C(OC)C=C(C5C6OC(=O)c5ccc(OC)c(OC)c5)C(C(OC)C23)C14 (stereo unspecified) | µM | > | 7.5 |
